Each entry below carries its reported protein stability index.
assayNotes: protein stability index of a GFP-peptide fusion (yeast GPS) (PSI 1-4); higher = more stable; sorted into four equal gates, so the index is relative within each strain
measurementSetup: doa10∆
Give a plain numeric answer without units written out.

INSERT INTO results (seqstring, measurementname, valueobserved) VALUES
  ('KDNGMLIIDGQIIFGVV [RPO21]', 'protein stability index', 1.95);

Query block: Tell me measured protein stability index for IVPVISTIENVLFYIGR [COB] please.
Result block: 1.85

Query block: Query protein stability index for TPVQPDLSVTPQKSSSK [YAR002W/NUP60]
Result block: 3.15

Query block: Report protein stability index, nothing else, for this sequence: EVSCKLLETITYVLNTW [YML103C/NUP188]
Result block: 2.15

Query block: Report protein stability index for TANANKPAFSFGATTND [YJL041W/NSP1]
Result block: 3.01
